test system: HCI11 (cells of an ER-positive luminal breast cancer xenograft); assay: cell viability (% of vehicle); higher = less cytotoxic; conditions: 10 µM; 72 h
Exercise: for every item that follows, state its recorded cell viability.
Answers are plain numbers.

Observe how each entry below is paired with its result.
INSERT INTO measurements (molecule, target_of_assay, value_reported) VALUES
  ('Cl.O=C1CC2(CCCC2)CC(=O)N1CCCCN1CCN(c2ncccn2)CC1 [Buspirone HCl]', 'HCI11', 101),
  ('Cl.O=C(O)C=Cc1ccc(Cn2ccnc2)cc1 [Ozagrel HCl]', 'HCI11', 99.5),
  ('CC1=NN(c2ccccc2)C(=O)C1 [Edaravone]', 'HCI11', 100);

Output cell viability of CS(=O)(=O)c1ccc(C2=C(c3ccccc3)C(=O)OC2)cc1 [Rofecoxib]
99.7

* * *

tested on: WHIM2 (cells of a triple-negative basal-like breast cancer xenograft); test: cell viability (% of vehicle); higher = less cytotoxic; settings: 10 µM; 72 h
Measure: cell viability

INSERT INTO measurements (compound, value_reported) VALUES
  ('O=C(C=Cc1ccc(O)c(O)c1)OC1CC(O)(C(=O)O)CC(O)C1O (centres undefined)', 101),
  ('CC(C)(C)N.CCCC(NC(C)C(=O)N1C(C(=O)O)CC2CCCCC21)C(=O)OCC (centres undefined)', 98.2),
  ('C[C@H](C(=O)O)c1ccc(-c2ccccc2)c(F)c1 [(S)-Flurbiprofen]', 103);

The record that follows has no cell viability shown yet.
Output cell viability of CN(C)c1cc(NC(=O)CNC(C)(C)C)c(O)c2c1CC1CC3C(N(C)C)C(=O)C(C(N)=O)=C(O)C3(O)C(=O)C1=C2O (centres undefined)
102

* * *

tested on: HCI03 (cells of an ER-positive luminal breast cancer xenograft); assay: cell viability (% of vehicle); higher = less cytotoxic; conditions: 10 µM; 72 h
Measure: cell viability
One number for each entry.

INSERT INTO assay_data (molecule, measure, value_reported) VALUES
  ('COc1ccc(CC2c3cc(OC)c(OC)cc3CC[N+]2(C)CCC(=O)OCCCCCOC(=O)CC[N+]2(C)CCc3cc(OC)c(OC)cc3C2Cc2ccc(OC)c(OC)c2)cc1OC.O=S(=O)([O-])c1ccccc1.O=S(=O)([O-])c1ccccc1 (stereo unspecified) [Atracurium Besylate]', 'cell viability', 110),
  ('CCN(CC)CCNC(=O)c1c(C)[nH]c(C=C2C(=O)Nc3ccc(F)cc32)c1C [Sunitinib]', 'cell viability', 134),
  ('CC(C)OC(=O)C(C)(C)Oc1ccc(C(=O)c2ccc(Cl)cc2)cc1 [Fenofibrate]', 'cell viability', 106);

Give measured cell viability for every item shown.
1. Cl.Nc1ccn(C2OC(CO)C(O)C2O)c(=O)n1 (stereo unspecified) [Cytarabine hydrochloride]
2. Cc1nc2n(c(=O)c1CCN1CCC(c3noc4cc(F)ccc34)CC1)CCCC2 [Risperidone]

[105, 82.8]

Give measured cell viability for every item shown.
1. CS(=O)(=O)O.OC(CCN1CCCCC1)(c1ccccc1)c1ccccc1 [Pridinol Methanesulfonate]
2. Cc1cn(C2CC(O)C(CO)O2)c(=O)[nH]c1=O (stereo unspecified) [Telbivudine]
3. NC(=O)c1cccnc1 [Nicotinamide]

1: 104; 2: 128; 3: 114

Give measured cell viability for every item shown.
1. NC(=O)CC[C@H](N)C(=O)O [L-Glutamine]
2. CCOC(=O)C1OC1C(=O)NC(CC(C)C)C(=O)NCCC(C)C (stereo unspecified)
3. CO[C@H]1C[C@@H]2CC[C@@H](C)[C@@](O)(O2)C(=O)C(=O)N2CCCC[C@H]2C(=O)O[C@H]([C@H](C)C[C@@H]2CC[C@@H](O)[C@H](OC)C2)CC(=O)[C@H](C)/C=C(\C)[C@@H](O)[C@@H](OC)C(=O)[C@H](C)C[C@H](C)/C=C/C=C/C=C/1C [Rapamycin (Sirolimus)]

[92.8, 118, 69.6]

* * *

system: HCI09 (cells of a triple-negative luminal androgen receptor type breast cancer xenograft); experiment: cell viability (% of vehicle); higher = less cytotoxic; details: 10 µM; 72 h
Binarize cell viability at 100; below is true, at or above is false.

INSERT INTO results (compound, target_of_assay, class_assignment) VALUES
  ('CN(C)CCC(c1ccc(Cl)cc1)c1ccccn1.O=C(O)C=CC(=O)O (centres undefined) [Chlorpheniramine Maleate]', 'HCI09', 'false'),
  ('CC(=O)N1CCN(c2ccc(OCC3COC(Cn4ccnc4)(c4ccc(Cl)cc4Cl)O3)cc2)CC1 (centres undefined) [Ketoconazole]', 'HCI09', 'true'),
  ('CCOC(=O)C1=C(C)NC(C)=C(C(=O)OC)C1c1cccc(Cl)c1Cl (centres undefined)', 'HCI09', 'false'),
  ('Cc1ccc(-n2[nH]c(C)c(NN=C3C=CC=C(c4cccc(C(=O)O)c4)C3=O)c2=O)cc1C', 'HCI09', 'true'),
  ('CNCC(O)c1ccc(O)c(O)c1.Cl (centres undefined) [Epinephrine HCl]', 'HCI09', 'true'),
  ('COC(=O)Nc1nc2ccc(Sc3ccccc3)cc2[nH]1', 'HCI09', 'false'),
  ('Cl.NC12CC3CC(CC(C3)C1)C2 [Amantadine HCl]', 'HCI09', 'false'),
  ('Oc1ccc(C=Cc2cc(O)cc(O)c2)cc1', 'HCI09', 'false');

Please look at the following compound next.
Take the compound CS(=O)(=O)CCNCc1ccc(-c2ccc3ncnc(Nc4ccc(OCc5cccc(F)c5)c(Cl)c4)c3c2)o1.Cc1ccc(S(=O)(=O)O)cc1.Cc1ccc(S(=O)(=O)O)cc1 [Lapatinib Ditosylate] and say whether its cell viability is less than 100.
true

* * *

Exercise: for every item that follows, state its recorded cell viability.
tested on: UCD52 (cells of a triple-negative basal-like breast cancer xenograft); experiment: cell viability (% of vehicle); higher = less cytotoxic; details: 10 µM; 72 h
Numbers only.

Observe how each entry below is paired with its result.
INSERT INTO measurements (compound, value_reported) VALUES
  ('Nc1nccs1', 91.8),
  ('CC1COc2c(N3CCN(C)CC3)c(F)cc3c(=O)c(C(=O)O)cn1c23 (configuration not stated)', 139),
  ('CC(Cn1cnc2c(N)ncnc21)OCP(=O)(O)O (configuration not stated)', 90.6),
  ('CCCCC(=O)OC1(C(=O)CO)C(C)CC2C3CCC4=CC(=O)C=CC4(C)C3(F)C(O)CC21C (configuration not stated) [Betamethasone Valerate]', 161),
  ('COc1cnc(NS(=O)(=O)c2ccc(N)cc2)nc1', 80.9);

Give measured cell viability for every item shown.
1. C=C1CCC(O)CC1=CC=C1CCCC2(C)C1CCC2C(C)C=CC(C)C(C)C (configuration not stated) [Vitamin D2 (Ergocalciferol)]
2. CN(C)CCCN1c2ccccc2CCc2ccccc21.Cl [Imipramine (hydrochloride)]

1. 65.5
2. 90.4

* * *

Exercise: for every item that follows, state its recorded cell viability of combination.
system: HCI01 (cells of a triple-negative basal-like breast cancer xenograft); assay: cell viability of combination (% of vehicle); higher = less cytotoxic; conditions: 1 µM; 72 h; partner dose: 10 nM
Answers are plain numbers.

INSERT INTO measurements (molecule, value_reported) VALUES
  ('COc1ccc(C[C@H](N)C(=O)N[C@@H]2[C@H](O)[C@H](n3cnc4c(N(C)C)ncnc43)O[C@@H]2CO)cc1.Cl.Cl [Puromycin dihydrochloride] + CC(C)C[C@H](NC(=O)[C@H](CCc1ccccc1)NC(=O)CN1CCOCC1)C(=O)N[C@@H](Cc1ccccc1)C(=O)N[C@@H](CC(C)C)C(=O)[C@@]1(C)CO1', 76.4),
  ('CC(C)C(=O)OCC(=O)[C@@]12O[C@H](C3CCCCC3)O[C@@H]1C[C@H]1[C@@H]3CCC4=CC(=O)C=C[C@]4(C)[C@H]3[C@@H](O)C[C@@]12C [Ciclesonide] + CC(C)C[C@H](NC(=O)[C@H](CCc1ccccc1)NC(=O)CN1CCOCC1)C(=O)N[C@@H](Cc1ccccc1)C(=O)N[C@@H](CC(C)C)C(=O)[C@@]1(C)CO1', 108),
  ('COc1cc2c(Oc3ccc4[nH]c(C)cc4c3F)ncnc2cc1OCCCN1CCCC1 [Cediranib (AZD217)] + CC(C)C[C@H](NC(=O)[C@H](CCc1ccccc1)NC(=O)CN1CCOCC1)C(=O)N[C@@H](Cc1ccccc1)C(=O)N[C@@H](CC(C)C)C(=O)[C@@]1(C)CO1', 80.6),
  ('COc1cccc2c1C(=O)c1c(O)c3c(c(O)c1C2=O)CC(O)(C(=O)CO)CC3OC1CC(N)C(O)C(C)O1.Cl (stereo not given) [Doxorubicin (Adriamycin) HCl] + CC(C)C[C@H](NC(=O)[C@H](CCc1ccccc1)NC(=O)CN1CCOCC1)C(=O)N[C@@H](Cc1ccccc1)C(=O)N[C@@H](CC(C)C)C(=O)[C@@]1(C)CO1 [Carfilzomib]', 60.9);

The record that follows has no cell viability of combination shown yet.
Fill in: cell viability of combination on HCI01, entry CN(C)CC=CC(=O)Nc1cc2c(Nc3ccc(F)c(Cl)c3)ncnc2cc1OC1CCOC1 (stereo not given) [Afatinib (BIBW2992)] + CC(C)C[C@H](NC(=O)[C@H](CCc1ccccc1)NC(=O)CN1CCOCC1)C(=O)N[C@@H](Cc1ccccc1)C(=O)N[C@@H](CC(C)C)C(=O)[C@@]1(C)CO1
63.1
